Origin of values: ChEMBL document CHEMBL1156388

Assay: Cytotoxicity against human multidrug-resistant KBV1 cells in presence of vinblastin
Type: functional
Conditions: KB-V1, read-out: ED50 (the source's name)
MEASURE: EC50
Please don't drop the unit; write it after the number.

Problem: Look up EC50: COc1cc(/C=C/C(=O)O[C@H]2C[C@H]3C[C@H](OC(=O)/C=C/c4cc(OC)c(OC)c(OC)c4)[C@@H](C2)N3C)cc(OC)c1OC
Result: 0.1 µg/mL

Problem: Look up EC50: COc1cc(/C=C/C(=O)O[C@H]2[C@@H](O)[C@@H]3C[C@H](OC(=O)c4cc(OC)c(OC)c(OC)c4)C[C@H]2N3C)cc(OC)c1OC
Result: 0.3 µg/mL

Problem: So what does the record say about EC50 for COc1cc(/C=C/C(=O)O[C@H]2C[C@@H]3C[C@H](OC(=O)c4cc(OC)c(OC)c(OC)c4)C[C@H]2N3C)cc(OC)c1OC ?
Result: 0.1 µg/mL

* * *

Test system: LNCaP
Experiment: Cytotoxicity against human LNCAP cells
Assay type: functional
Conditions: read-out: ED50 (the source's name)
Reported EC50 is given for each of the following molecules.

MOLECULE	ASSAY VALUE
COc1cc(/C=C/C(=O)O[C@H]2C[C@H]3C[C@H](OC(=O)/C=C/c4cc(OC)c(OC)c(OC)c4)[C@@H](C2)N3C)cc(OC)c1OC [PERVILLEINE C]	> 20 µg/mL
COc1cc(/C=C/C(=O)O[C@@H]2C[C@@H]3[C@@H](OC(=O)/C=C/c4cc(OC)c(OC)c(OC)c4)[C@@H](O)[C@H](C2)N3C)cc(OC)c1OC [PERVILLEINE D]	14.1 µg/mL
COc1cc(/C=C/C(=O)O[C@H]2C[C@@H]3C[C@H](OC(=O)Cc4ccccc4)C[C@H]2N3C)cc(OC)c1OC [PERVILLEINE F]	> 20 µg/mL
COc1cc(/C=C/C(=O)O[C@H]2[C@@H](O)[C@@H]3C[C@H](OC(=O)c4cc(OC)c(OC)c(OC)c4)C[C@H]2N3C)cc(OC)c1OC [PERVILLEINE A]	> 20 µg/mL
COc1cc(/C=C/C(=O)O[C@H]2C[C@@H]3C[C@H](OC(=O)Cc4cccc(O)c4)C[C@H]2N3C)cc(OC)c1OC [PERVILLEINE E]	> 20 µg/mL
COc1cc(/C=C/C(=O)O[C@H]2[C@@H](O)[C@@H]3C[C@H](OC(=O)c4cc(OC)c(OC)c(OC)c4)C[C@H]2[N+]3(C)[O-])cc(OC)c1OC (some centres undefined)	> 20 µg/mL

Problem: GET /values?readout=EC50&system=LNCaP&item= COc1cc(/C=C/C(=O)O[C@H]2C[C@@H]3C[C@H](OC(=O)c4cc(OC)c(OC)c(OC)c4)C[C@H]2N3C)cc(OC)c1OC [PERVILLEINE B]
Result: 1 µg/mL

Problem: Observed EC50 on LNCaP for CN1C2C[C@@H](OC(=O)Cc3ccccc3)CC1[C@H](O)[C@@H]2O , please.
Result: > 20 µg/mL

Problem: Which EC50 is reported with LNCaP for this entry: COc1cc(C(=O)O[C@H]2C[C@H]3CC[C@@H](C2)N3C)cc(OC)c1OC ?
Result: > 20 µg/mL
